# MEASUREMENT_TARGET: T1, NHERF3_4, Q5T2W1
# T1 sequence (Q5T2W1 373-468, limits assumed, looked up): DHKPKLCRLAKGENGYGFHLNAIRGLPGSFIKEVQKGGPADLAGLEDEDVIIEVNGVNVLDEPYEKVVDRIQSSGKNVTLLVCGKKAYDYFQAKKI
# METHOD: holdup assay
# Parameters: key: below the threshold = too weak to quantify, mostly under pKd 3.1 to 4
# CONDITIONS_USED: plain residues with an end cap or a label only (N-terminal biotin on a linker: ahx)
REPORTED_PROPERTY: pKd

A selection of reference data follows.
> print(dat)
                        binder      reported.result
1  EKQAKGDTEF [CACYBP, Q9HB71]  below the threshold
2  TQKFRASTAL [FRMPD1, Q5SYB0]                 4.54
3   APSRKLNTEI [TIAM1, Q13009]  below the threshold
4   QDEKVKESYV [ABCA1, O95477]                  3.5

State the recorded pKd for every item in the following list.
1. HTHSYIETHV [CNKSR2, Q8WXI2]
2. QPRTWLQSPV [RTKN, Q9BST9]
3. TEAKLTETNA [MYO18A, Q92614]

1: below the threshold; 2: below the threshold; 3: below the threshold

Below are some binders; for each one, tell me its pKd.
1. QNTDDVQTSF [ACE2, Q9BYF1]
2. TESNLQTSSC [CGN, Q9P2M7]

1: 3.57; 2: below the threshold
